Biological target: acetylcholine receptor
Assay: SPR, receptor immobilised on chip, peptide at 10 µM
ENDPOINT LABEL: Binding affinity (RU)

• KLVTKK [6mer-2-518] = 151
• KGIRKK [6mer-2-476] = 148
• RGIQKR [6mer-2-524] = 128
• KLLCKK [6mer-2-495] = 121
• KWRLKK [6mer-2-479] = 154
• KQQSKK [6mer-2-486] = 121
• RQQQKK [6mer-2-516] = 146
• KRVLKK [6mer-2-510] = 146
• KQQRKR [6mer-2-529] = 124
• KQIQRR [6mer-2-519] = 135
• KGLLRR [6mer-2-494] = 144
• RWYTKR [6mer-2-484] = 148
• KWVRKK [6mer-2-525] = 145
• RGQTRR [6mer-2-527] = 145
• KGLQKK [6mer-2-514] = 124
• RVRYRK [6mer-2-496] = 144
• KSITKR [6mer-2-532] = 147
